Hey, just so you know, these numbers are from patent US11028051B2.

- testedTarget: BRD2-BD1 (Homo sapiens (Human), UniProt P25440)
- Sequence (P25440 74-180): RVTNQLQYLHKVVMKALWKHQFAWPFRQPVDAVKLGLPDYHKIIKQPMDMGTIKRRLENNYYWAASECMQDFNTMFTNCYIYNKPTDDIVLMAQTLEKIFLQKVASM
- protocolSummary: competitive TR-FRET assay, BET-BD with acetylated peptide ligand
- Assay type: binding
- conditionsUsed: BRD2-BD1; Table 11 additional modifications; read-out: 2.1 EC50
propertyMeasured: EC50 (nM)

[[record]]
smi = "CC(=O)N1c2ccc(-c3cccc(NC(=O)C(C)(C)C)c3)cc2[C@H](Nc2ccc(C#N)cc2)C[C@@H]1C"
valuemeasured = 1800

[[record]]
smi = "COC(=O)c1ccc(N[C@@H]2C[C@H](C)N(C(C)=O)c3ccc(-c4cccc(NC(C)=O)c4)cc32)c(C)c1"
valuemeasured = 2200

[[record]]
smi = "CC(=O)Nc1cccc(-c2ccc3c(c2)[C@H](Nc2cc(F)c(C#N)c(F)c2)C[C@H](C)N3C(C)=O)c1"
valuemeasured = 2200

[[record]]
smi = "CC(=O)Nc1cccc(-c2ccc3c(c2)[C@H](Nc2ccc4c(c2)OCO4)C[C@H](C)N3C(C)=O)c1"
valuemeasured = 1800

